read-out: CYP2C9 (gene 1559); assay: LTEA_HepaRG_CYP2C9: Life Technologies and Expression Analysis (LTEA) Assay for CYP2C9 using HepaRG (AID 2283484); settings: mRNA level, 48 h; actives raise or lower the signal
Activity calls are given as the source filed them. Rule for the calls: active = hit-call score of the fitted dose curve at least 0.9, where 1 is the maximum; inactive = score below 0.9.
The reply should be one of these categories: active, inactive

molecule	answer label
CNC(=O)ON=CC(C)(C)SC	inactive
O=C(O)c1nc(Cl)ccc1Cl	inactive
COc1cnc(OC)n2nc(NS(=O)(=O)c3c(OCC(F)F)cccc3C(F)(F)F)nc12	inactive
CCCCNC(=O)n1c(NC(=O)OC)nc2ccccc21	inactive
CCON=C(CC)C1=C(O)CC(c2c(C)cc(C)cc2C)CC1=O (stereo unspecified)	inactive

Q) What did the test return for `COC(=O)N(OC)c1ccccc1COc1ccn(-c2ccc(Cl)cc2)n1` ?
A) active

Q) Now consider CCOC(=O)CC(SP(=S)(OC)OC)C(=O)OCC (stereo unspecified) and answer again.
A) inactive

Q) How about this molecule: `CCNc1nc(Cl)nc(NC(C)C)n1`
A) inactive

Q) And CCCCC(CC)COC(=O)c1ccccc1C(=O)OCC(CC)CCCC (stereo unspecified) ?
A) inactive

Q) Now the same for `CON(C)C(=O)Nc1ccc(Cl)c(Cl)c1`
A) inactive

Q) Try this molecule next: `C=CCC1=C(C)[C@@H](OC(=O)[C@@H]2[C@@H](C=C(C)C)C2(C)C)CC1=O`
A) inactive

Q) // next record `N#Cc1cc(Br)c(O)c(Br)c1`
A) active

Q) Continue with `CCCCNC(=O)OCC#CI`
A) active

Q) And then `CCNc1nc(Cl)nc(NCC)n1` , what is it?
A) inactive

Q) Another molecule: `COc1ccc(C(c2ccc(OC)cc2)C(Cl)(Cl)Cl)cc1`
A) inactive

Q) Moving on to Cc1c(F)c(F)c(COC(=O)C2C(/C=C(\Cl)C(F)(F)F)C2(C)C)c(F)c1F (stereo unspecified)
A) inactive

Q) Next up: CC(Oc1ccc(Cl)cc1Cl)C(=O)O (stereo unspecified)
A) inactive

Q) Please answer likewise for `COC(=O)c1ccccc1C(=O)OC`
A) inactive

Q) Input N#Cc1nn(-c2c(Cl)cc(C(F)(F)F)cc2Cl)c(N)c1S(=O)C(F)(F)F (stereo unspecified)
A) active

Q) Try this molecule next: `Fc1ccc(Oc2ccnc3cc(Cl)cc(Cl)c23)cc1`
A) active

Q) Likewise for OC(c1ccc(Cl)cc1)(c1cncnc1)c1ccccc1Cl (stereo unspecified) ?
A) active

Q) And `COP(=S)(OC)Oc1nc(Cl)c(Cl)cc1Cl` ?
A) inactive

Q) Param item: N#CC(CCc1ccc(Cl)cc1)(Cn1cncn1)c1ccccc1 (stereo unspecified)
A) active

Q) How about `O=C(O)COc1nc(Cl)c(Cl)cc1Cl` ?
A) inactive

Q) Item: `CC1=C(C(=O)Nc2ccccc2)SCCO1`
A) inactive

Q) Param item: `COC(=O)C=C(C)OP(=O)(OC)OC`
A) inactive

These measurements were taken from PubChem BioAssay (EPA / NIEHS).
